Compiled record: Ki values for Translocator protein (Rattus norvegicus, UniProt P16257) across several sources.
Report as a plain number; the unit nM is understood.

// known answers, use as guide
> print(dat)
                                   compound  test.readout  readout.number
1  CCCCN(CCCC)C(=O)C(=O)c1c(-c2ccccc2)n(C)c2ccccc12            Ki             0.3
2  CCCCCN(C)C(=O)C(=O)c1c(-c2ccc(Cl)cc2)[nH]c2ccccc12            Ki             3.4
3     CCCCCN(CCCCC)C(=O)Cc1cc(-c2ccccc2)on1            Ki              51
4  CCCN(CCC)C(=O)C(=O)c1c(-c2ccc(F)cc2)[nH]c2ccc(F)cc12            Ki            6.73

Log: Translocator protein (Rattus norvegicus, UniProt P16257), compound CCOc1ccc2c(c1)c1c(n2CCF)-c2ccccc2SC1C(=O)N(CC)CC (racemic) , Ki = 0.52

----------
Compiled record: Ki values for Translocator protein (Rattus norvegicus) across several sources.
Report as a plain number; the unit nM is understood.

// known answers, use as guide
> print(dat)
                                   compound  test.readout   u  readout.number
1  CCN(Cc1ccc([N+](=O)[O-])cc1)C(=O)c1nc(-c2ccccc2)c2ccccc2n1            Ki  nM             4.2
2  Cc1cc(C)n2nc(-c3ccc(CCCF)cc3)c(CC(=O)N3CCCCC3)c2n1            Ki  nM             2.2
3  CCN(CC)C(=O)C1Sc2ccccc2-c2[nH]c3ccc(NC(C)=O)cc3c21 (racemic)            Ki  nM            59.2
4  CCCCN(CCCC)C(=O)C(=O)c1c(-c2ccc(C)cc2)[nH]c2ccccc12            Ki  nM             3.8
5  CCCCCCN(CCCCCC)C(=O)c1nc(-c2ccc(Cl)cc2)c2ccccc2n1            Ki  nM            3.42

Log: Translocator protein (Rattus norvegicus), compound `COC1=C(c2ccccc2)Sc2ccccc2-n2cccc21` , Ki = 7000

Log: Translocator protein (Rattus norvegicus), compound CCN(CC)C(=O)C1Sc2ccccc2-c2[nH]c3ccccc3c21 (racemic) , Ki = 0.76

Log: Translocator protein (Rattus norvegicus), compound `CCCCN(C)C(=O)C(=O)c1c(-c2ccccc2)[nH]c2ccc(Cl)cc12` , Ki = 3.9

Log: Translocator protein (Rattus norvegicus), compound `CCCN(CCC)C(=O)C(=O)c1c(-c2ccccc2)n(C)c2ccc(F)cc12` , Ki = 23.7

Log: Translocator protein (Rattus norvegicus), compound `CCCCCCN(CCCCCC)C(=O)C(=O)c1c(-c2ccc(F)cc2)n(C)c2ccccc12` , Ki = 1.07

----------
Compiled record: pKi values for Translocator protein (Rattus norvegicus, UniProt P16257) across several sources.
Value format note: pKi is -log10 of concentration (mol/L); just state the number.

// known answers, use as guide
> print(dat)
                                   molecule                               test.target  test.readout  readout.number
1  CCN(CC)C(=O)C1Sc2ccccc2-c2c1c1ccc(OC)nc1n2CCF (racemic)  Translocator protein (Rattus norvegicus, UniProt P16257)           pKi            8.07
2  CCCCCCN(CCCCCC)C(=O)C(=O)c1c(-c2ccc(C(=O)O)cc2)[nH]c2ccccc12  Translocator protein (Rattus norvegicus, UniProt P16257)           pKi            6.74
3   O=C(c1cc(-c2ccccc2I)c2ccccc2n1)N1CCOCC1  Translocator protein (Rattus norvegicus, UniProt P16257)           pKi            6.03
4  CCCN(CCC)C(=O)C(=O)c1c(-c2ccc(F)cc2)[nH]c2ccccc12  Translocator protein (Rattus norvegicus, UniProt P16257)           pKi            8.37

In plain terms, `CN(Cc1ccccc1)C(=O)C(=O)c1c(-c2ccccc2)[nH]c2ccccc12` has a documented pKi of 7.92

In plain terms, `CCCN(CCC)C(=O)C(=O)c1c(-c2ccc(C(F)(F)F)cc2)[nH]c2ccccc12` has a documented pKi of 8.77

----------
Compiled record: Ki values for Translocator protein (Rattus norvegicus) across several sources.
Form entry: enter the amount, then its unit.

> print(dat)
                                   molecule                               test.target   result
1  CCN(Cc1ccccc1)C(=O)c1nc(-c2ccc(F)cc2)c2ccccc2n1  Translocator protein (Rattus norvegicus)  1.68 nM
2  COc1ccc(C2=C(OS(C)(=O)=O)c3cccn3-c3ccccc3S2)cc1  Translocator protein (Rattus norvegicus)    95 nM
3  CCCCCCN(CCCCCC)C(=O)c1nc(-c2ccccc2Cl)c2ccccc2n1  Translocator protein (Rattus norvegicus)  65.1 nM
4  CN(C(=O)Cn1c(=O)n2c3c(cc(-c4ccccc4)cc31)CCC2)c1ccncc1  Translocator protein (Rattus norvegicus)    15 nM

In plain terms, `O=C(c1nc(-c2ccc(Cl)cc2)c2ccccc2n1)N1CCCCCC1` has a documented Ki of 84.3 nM

In plain terms, `CCCCCCN(CCCCCC)C(=O)Cc1nc(-c2ccccc2)no1` has a documented Ki of 1100 nM

In plain terms, `CCCCN(CCCC)C(=O)C(=O)c1c(-c2ccc(OC)cc2)[nH]c2ccccc12` has a documented Ki of 20.3 nM

In plain terms, CCN(CC)C(=O)C1Sc2ccccc2-c2c1c1ccccc1n2CCCF (racemic) has a documented Ki of 0.36 nM

In plain terms, `CCCCCN(CCCCC)C(=O)Cc1nc(-c2ccc(Cl)cc2)no1` has a documented Ki of 152 nM

In plain terms, `CCCN(CCC)C(=O)Cn1c(=O)n2c3c(cc(-c4ccccc4)cc31)CCC2` has a documented Ki of 1.7 nM

----------
Compiled record: pKi values for Translocator protein (Rattus norvegicus) across several sources.
Value format note: pKi is -log10 of concentration (mol/L); just state the number.

// known answers, use as guide
> print(dat)
                                   compound  test.readout  readout.number
1  CC[C@H](C)[C@H](NC(=O)[C@@H](NC(=O)C(=O)c1c(-c2ccccc2)[nH]c2ccccc12)C(C)C)C(=O)OC           pKi            6.11
2         CCCN(CCC)C(=O)Cc1nc(-c2ccccc2)no1           pKi            5.36
3  O=C(c1nc(-c2ccccc2Cl)c2cc(Cl)ccc2n1)N1CCCCC1           pKi            6.56
4  CCCCN(CCCC)C(=O)C(=O)c1c(-c2ccc(Cl)cc2)[nH]c2ccccc12           pKi            9.00
5  COc1cccc(N(C)C(=O)Cn2c(=O)n3c4c(cc(-c5ccccc5)cc42)CCC3)c1           pKi            9.55

Log: Translocator protein (Rattus norvegicus), compound `CCCCCCN(CCCCCC)C(=O)C(=O)c1c(-c2ccccc2)[nH]c2ccc(F)cc12` , pKi = 9.43

Log: Translocator protein (Rattus norvegicus), compound `CCCCN(CCCC)C(=O)Cc1nc(-c2ccc(Cl)cc2)no1` , pKi = 6.57

Log: Translocator protein (Rattus norvegicus), compound `CCCCCN(CCCCC)C(=O)C(=O)c1c(-c2ccccc2)[nH]c2ccccc12` , pKi = 7.80

Log: Translocator protein (Rattus norvegicus), compound `O=C(c1nc(-c2ccccc2Cl)c2ccccc2n1)N1CCCCCC1` , pKi = 8.06

Log: Translocator protein (Rattus norvegicus), compound `O=C(C(=O)N1CCCC1)c1c(-c2ccccc2)[nH]c2ccccc12` , pKi = 5.62

Log: Translocator protein (Rattus norvegicus), compound `CC[C@@H](C)N(C)C(=O)c1nc(-c2ccccc2Cl)c2ccccc2n1` , pKi = 8.81

Log: Translocator protein (Rattus norvegicus), compound CC(C)N(C(=O)C1CCCc2c1c1ccccc1n2CCF)C(C)C (racemic) , pKi = 8.77

----------
Compiled record: pKi values for Translocator protein (Rattus norvegicus, UniProt P16257) across several sources.
Value format note: pKi is -log10 of concentration (mol/L); just state the number.

> print(dat)
                                  structure  readout.number
1  CCCN(CCC)C(=O)C(=O)c1c(-c2ccccc2)n(C)c2ccccc12            7.71
2  CCCCN(CC)C(=O)C(=O)c1c(-c2ccc3ccccc3c2)[nH]c2ccccc12            9.29

In plain terms, `CCCCCCN(CCCCCC)C(=O)C(=O)c1c(-c2ccccc2)[nH]c2c(C)cccc12` has a documented pKi of 8.72

In plain terms, `CCCCN(CCCC)C(=O)Cc1coc(-c2ccc(Cl)cc2)n1` has a documented pKi of 6.75

In plain terms, `COc1ccc(N(C)C(=O)Cn2c(=O)oc3ccc(-c4cccnc4)cc32)cc1` has a documented pKi of 7.72
